Catalogue of sequences with associated PBM binding z-score
Tested on: VDR homodimer (NR concentration 270 nM)
assay.text: PBM binding z-score (relative to random genomic background probes); higher = stronger binding; sequences stand for … in GC…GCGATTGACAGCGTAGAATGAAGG
observation.type: PBM binding z-score

[[record]]
residues = "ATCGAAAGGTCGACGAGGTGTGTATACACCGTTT"
meas_value = 0.527

[[record]]
residues = "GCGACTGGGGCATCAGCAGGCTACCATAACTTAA"
meas_value = -0.693

[[record]]
residues = "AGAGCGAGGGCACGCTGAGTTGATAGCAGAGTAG"
meas_value = 1.48

[[record]]
residues = "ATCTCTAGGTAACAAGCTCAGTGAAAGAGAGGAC"
meas_value = -0.048

[[record]]
residues = "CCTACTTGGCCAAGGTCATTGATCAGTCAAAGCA"
meas_value = 3.62

[[record]]
residues = "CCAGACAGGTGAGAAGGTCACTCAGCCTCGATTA"
meas_value = 1.36

[[record]]
residues = "CATACAGGGTCAGCTAGGCCAGAGTTGGGACGGC"
meas_value = 1.33

[[record]]
residues = "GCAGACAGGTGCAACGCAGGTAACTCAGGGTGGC"
meas_value = -0.15

[[record]]
residues = "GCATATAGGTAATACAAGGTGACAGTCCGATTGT"
meas_value = 0.0173

[[record]]
residues = "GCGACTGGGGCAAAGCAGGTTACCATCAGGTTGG"
meas_value = -0.458

[[record]]
residues = "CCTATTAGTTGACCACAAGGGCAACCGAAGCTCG"
meas_value = 1.01

[[record]]
residues = "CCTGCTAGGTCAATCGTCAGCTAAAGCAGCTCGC"
meas_value = -0.0155

[[record]]
residues = "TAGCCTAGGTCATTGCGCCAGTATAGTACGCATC"
meas_value = 1.54

[[record]]
residues = "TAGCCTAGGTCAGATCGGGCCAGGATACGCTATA"
meas_value = -0.433

[[record]]
residues = "CCGACTGGGCCATAAGGTTACCATAAGCCAGCCC"
meas_value = -0.224


* * *

Test system: PPARg:RXRa 90nM:30nM, anti-RXR (NR concentration 90 nM, RXRa partner concentration 30 nM)
assay.text: PBM binding z-score (relative to random genomic background probes); higher = stronger binding; sequences stand for … in GC…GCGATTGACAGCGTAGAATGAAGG
Label Condition met when PBM binding z-score is at or above 0.6; anything below gets Condition not met.

[[record]]
residues = "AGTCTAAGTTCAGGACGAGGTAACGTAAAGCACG"
class = "Condition not met"

[[record]]
residues = "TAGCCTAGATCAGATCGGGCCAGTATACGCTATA"
class = "Condition not met"

[[record]]
residues = "GCATATACGTAATACAAGGTGAAAGTCCGATTGT"
class = "Condition not met"

[[record]]
residues = "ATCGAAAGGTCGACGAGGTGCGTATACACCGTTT"
class = "Condition met"

[[record]]
residues = "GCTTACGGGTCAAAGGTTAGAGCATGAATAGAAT"
class = "Condition met"

[[record]]
residues = "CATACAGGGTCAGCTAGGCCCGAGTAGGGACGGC"
class = "Condition met"

[[record]]
residues = "TGAATGAGGTTATAAGATCAGGTAACGTTGCAAA"
class = "Condition met"

[[record]]
residues = "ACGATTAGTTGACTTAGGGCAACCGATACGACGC"
class = "Condition not met"

